targetOrSystem: T1, Insulin-like Growth Factor receptor (UniProt P08069 31-1367, limits assumed)
T1 construct: Captured on antibody-coated microtiter plates; the construct is not described; also called IGFR; IGF Type I receptor
testDetails: competitive displacement of 125I-IGF-1 from IGFR
assayReadout: pKd
Interpret pKd as the negative base-10 log of the concentration measured in mol/L.

Prompt: Given single chain insulin (SCI) that is wild type at position B10 (His^A8, Asp^B28, Pro^B29) (ligand, also called A8-His, B28-Asp, B29-Pro SCI; SCI not containing the Asp^B10 substitution) FVNQHLCGSHLVEALYLVCGERGFFYTDPTGGGPRRGIVEQCCHSICSLYQLENYCN , state its recorded pKd.
Completion: 7.56
